Target of assay: human serum albumin (HSA) (Homo sapiens)
Method: Bound percentage by HPLC on HSA column, extrapolation to zero organic modifier
Type: in vitro ADME
Condition details: extrapolation to zero percent IPA
Recorded metric: Bound percentage (b%)

>>> print(df.to_string())
                                chem_smiles        recorded_metric  result
0  Cc1c(OCC(F)(F)F)ccnc1C[S@+]([O-])c1nc2ccccc2[nH]1  Bound percentage (b%)  93.67%
1  COCCCOc1ccnc(C[S@@+]([O-])c2nc3ccccc3[nH]2)c1C  Bound percentage (b%)  88.24%
2  COc1ccc2nc([S@@+]([O-])Cc3ncc(C)c(OC)c3C)[nH]c2c1  Bound percentage (b%)  91.15%
3  Cc1c(OCC(F)(F)F)ccnc1C[S@@+]([O-])c1nc2ccccc2[nH]1  Bound percentage (b%)  91.77%
4  COc1ccc2[nH]c([S@+]([O-])Cc3ncc(C)c(OC)c3C)nc2c1  Bound percentage (b%)  91.15%
5  COCCCOc1ccnc(C[S@+]([O-])c2nc3ccccc3[nH]2)c1C  Bound percentage (b%)  88.24%

* * *

Target of assay: human serum albumin (HSA) (Homo sapiens)
Method: Bound percentage by HPLC on HSA column, extrapolation to zero organic modifier
Assay type: in vitro ADME
Condition details: extrapolation to zero percent EtOH
# Bound percentage (b%) values compiled below
Recorded metric: Bound percentage (b%)

                                   molecule        recorded_metric  result_unit  result
0  Cc1c(OCC(F)(F)F)ccnc1C[S@@+]([O-])c1nc2ccccc2[nH]1 [R-lansoprazole, dexlansoprazole]  Bound percentage (b%)            %   92.69
1  COCCCOc1ccnc(C[S@@+]([O-])c2nc3ccccc3[nH]2)c1C [R-rabeprazole, dexrabeprazole]  Bound percentage (b%)            %   88.85
2  COc1ccc2nc([S@@+]([O-])Cc3ncc(C)c(OC)c3C)[nH]c2c1 [S-omeprazole, esomeprazole]  Bound percentage (b%)            %   92.97
3  Cc1c(OCC(F)(F)F)ccnc1C[S@+]([O-])c1nc2ccccc2[nH]1 [S-lansoprazole]  Bound percentage (b%)            %   94.85
4  COc1ccc2[nH]c([S@+]([O-])Cc3ncc(C)c(OC)c3C)nc2c1 [R-omeprazole]  Bound percentage (b%)            %   92.97
5  COCCCOc1ccnc(C[S@+]([O-])c2nc3ccccc3[nH]2)c1C [S-rabeprazole]  Bound percentage (b%)            %   88.85

* * *

Target of assay: human serum albumin (HSA) (Homo sapiens, UniProt P02768)
Sequence (P02768 25-609): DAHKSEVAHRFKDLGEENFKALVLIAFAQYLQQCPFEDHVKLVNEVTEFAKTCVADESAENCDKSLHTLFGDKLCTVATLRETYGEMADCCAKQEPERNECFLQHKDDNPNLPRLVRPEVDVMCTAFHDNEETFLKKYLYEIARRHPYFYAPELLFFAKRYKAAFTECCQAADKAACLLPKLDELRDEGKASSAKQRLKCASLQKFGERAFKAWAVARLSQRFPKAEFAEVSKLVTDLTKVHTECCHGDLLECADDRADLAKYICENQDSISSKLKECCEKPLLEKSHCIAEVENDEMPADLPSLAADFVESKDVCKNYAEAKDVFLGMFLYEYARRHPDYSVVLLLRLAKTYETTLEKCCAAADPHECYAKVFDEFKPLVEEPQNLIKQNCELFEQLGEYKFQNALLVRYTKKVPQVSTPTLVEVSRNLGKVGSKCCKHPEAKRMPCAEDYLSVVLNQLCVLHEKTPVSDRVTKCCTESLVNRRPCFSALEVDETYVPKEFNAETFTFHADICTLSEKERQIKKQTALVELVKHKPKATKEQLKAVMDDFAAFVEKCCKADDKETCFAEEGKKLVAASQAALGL
Method: Displacement chromatography on HSA column with warfarin and ibuprofen as competitors
Format: binding
Condition details: ibuprofen 0 mM, IPA:10 mM pH 7 phosphate buffer 1:99, 25 °C
Recorded metric: k retention factor

                                   compound                           target_of_assay  result
0  COCCCOc1ccnc(C[S+]([O-])c2nc3ccccc3[nH]2)c1C (stereo not shown)  human serum albumin (HSA) (Homo sapiens, UniProt P02768)    7.21
1  Cc1c(OCC(F)(F)F)ccnc1C[S@@+]([O-])c1nc2ccccc2[nH]1  human serum albumin (HSA) (Homo sapiens, UniProt P02768)   18.27
2  COc1ccc2[nH]c([S+]([O-])Cc3ncc(C)c(OC)c3C)nc2c1 (stereo not shown)  human serum albumin (HSA) (Homo sapiens, UniProt P02768)    9.53
3  Cc1c(OCC(F)(F)F)ccnc1C[S@+]([O-])c1nc2ccccc2[nH]1  human serum albumin (HSA) (Homo sapiens, UniProt P02768)   11.17
